Reference source for all entries: patent US20240270826A1

molecular target: SARS-CoV-2 S1 (aa16-685) (Wuhan) (SARS-CoV-2 (Wuhan), UniProt P0DTC2 16-685); assay: sandwich ELISA: biotin NRCoV2-02 VHH capture, antigen titrated, VHH-Fc detector
Limit of detection values by entry
The reply should be a number in ng/mL, with the unit left off.

Before answering, review these 3 worked examples.
INSERT INTO results (binder, readout_value) VALUES
  ('NRCoV2-04 VHH-Fc (Fc fusion, bivalent VHH-Fc) AVQLVDSGGGLVQPGGSLRLSCAASGSPFSNVVMAWYRQAPGKQRERVAFISGGGIADYIMSVKGRFTISRDNAKNTVYLQMNSLKPEDTAVYYCWSSYESTWGQGTQVTVSS', 4.12),
  ('NRCoV2-07 VHH-Fc (Fc fusion, bivalent VHH-Fc) QVQLVQSGGGLVQPGGSLRLSCAASGVTLDYYAIGWFRQAPGKEREAVSCISSNGRRNHYVASVRGRFTISRDNAKSTVYLQMNSLKPEDTAVYYCAAVQDVHGDNYYCTSPNEYNVWGQGTQVTVSS', 0.46),
  ('NRCoV2-1d VHH-Fc (Fc fusion, bivalent VHH-Fc) EVQLVESGGGSVQPGGSLRLSCAASGSTLDYYAIGWFRQAPGKEREWVSSVSSSDGNTLYADSVKGRFTISRDNAKNTVYLQMNSLKAEDTAVYVCAADYSMRPFAVGRWHRDYEYWGQGTQVTVSS', 1.37);

# input for lookup
Provide measured Limit of detection value, entry: NRCoV2-11 VHH-Fc (Fc fusion, bivalent VHH-Fc) EVQLVSSGGGLVQPGGSLRLSCAASGSSLDSYSVSWFRQAPGKEREWISFISRYYSSTYYTDSVKGRFTTSRDGDQKTVHLQMNSLKPEDTAVYYCAARSRDFSSPFSATDTYTSWGQGTQVTVSS
0.46
